target: TPK enzyme (Homo sapiens (Human)); assay: TPK enzyme activity test; details: promoting effect on TPK enzyme activity
Where a name gives a salt, the structure may show the parent alone.
assay readout: EC50 (nM)

Reference set, count: 2
Which value of EC50 has been reported for `Cc1ccc2c(c1)[nH]c1c(=O)n(CCC(=O)N3CCN(c4ccc(Cl)c(Cl)c4)CC3)cnc12` in the records?
2000

Can you share its EC50? I mean this compound: `Cc1ccc2c(c1)-c1ncn(CCC(=O)N3CCC(Cc4ccc(F)cc4)CC3)c(=O)c1CC2`
930

[1] Cc1ccc2[nH]c3c(=O)n(CCC(=O)N4CCN(c5cccc(C(F)(F)F)c5)CC4)ccc3c2c1
[2] O=C(CCn1cnc2c(oc3ccc(F)cc32)c1=O)N1CCC(Cc2ccc(F)cc2)CC1
[3] O=C(CCn1cnc2c([nH]c3ccc(F)cc32)c1=O)N1CCN(c2cccc(C(F)(F)F)c2)CC1
[4] C[C@H](OC(C)(C)C)[C@@H](NC(=O)OCC1c2ccccc2-c2ccccc21)C(=O)O
[5] O=C(O)CCC(=O)OCCN1CCN(CCC(=O)N2c3ccccc3Sc3ccc(C(F)(F)F)cc32)CC1
Arrange items by their EC50 values in increasing order. Write the labels in rank order as requested.
5, 1, 2, 3, 4
(5: 490 nM, 1: 1380 nM, 2: 1990 nM, 3: 3170 nM, 4: 9040 nM)

[A] Cc1ccc2nc3c(=O)n(CCC(=O)N4CCN(c5cccc(C(F)(F)F)c5)CC4)cnc3cc2c1
[B] O=C(N[C@@H](Cc1ccc(F)cc1)C(=O)O)OCC1c2ccccc2-c2ccccc21
[C] O=C(CCn1cnc2c([nH]c3ccccc32)c1=O)N1CCN(c2cccc(C(F)(F)F)c2)CC1
[D] O=C(CCn1cnc2c(sc3ccccc32)c1=O)N1CCC(O)(c2cccc(C(F)(F)F)c2)CC1
[E] Cc1ccc2c(c1)-c1nc(=O)n(CCCN3CCN(c4cccc(Cl)c4Cl)CC3)cc1CO2
Number of compounds to sort: 5. Sort criterion: EC50, ascending. Write the labels, ordered according to the request.
E, A, C, B, D
(E: 546 nM, A: 1160 nM, C: 2290 nM, B: 4070 nM, D: 7720 nM)

[A] Cc1ccc2[nH]c3c(=O)n(CCC(=O)NCc4cccc(C(F)(F)F)c4)ccc3c2c1
[B] Cc1ccc2c(c1)-c1nc(=O)n(CCC(=O)N3CCN(c4cccc(Cl)c4Cl)CC3)cc1CO2
[C] Cc1ccc2ncc3c(=O)n(CCCC(=O)N4CCC(Cc5ccc(F)cc5)CC4)cnc3c2c1
[D] Cc1ccc2[nH]c3c(=O)n(CCC(=O)N4CCN(c5cc(C(F)(F)F)cc(C(F)(F)F)c5)CC4)cnc3c2c1
Order the items by recorded EC50; the first position goes to the largest value. Quick reminder: the answer is the labels in the order asked.
B, A, C, D
(B: 2380 nM, A: 1200 nM, C: 617 nM, D: 360 nM)

[P] Cc1ccc2[nH]c3c(=O)n(CCCN4CCN(c5cccc(Cl)c5Cl)CC4)cnc3c2c1 [Diformate salt of 52]
[Q] Cc1ccc2[nH]c3c(=O)n(CCC(=O)N4CCC(O)(c5cccc(C(F)(F)F)c5)CC4)cnc3c2c1
[R] Cc1ccc2[nH]c3c(=O)n(CCC(=O)N4CCC(N(C)c5cccc(Cl)c5Cl)CC4)cnc3c2c1
Rank items: key EC50, increasing. // format: requested-order list of labels
R, P, Q

###

molecular target: TPK enzyme (Homo sapiens (Human), UniProt Q9H3S4); assay: TPK enzyme activity test; format: biochemical; conditions: calculated with the effect of DMSO on TPK enzyme activity as 100%; read-out: Emax
Sequence (Q9H3S4 whole entry): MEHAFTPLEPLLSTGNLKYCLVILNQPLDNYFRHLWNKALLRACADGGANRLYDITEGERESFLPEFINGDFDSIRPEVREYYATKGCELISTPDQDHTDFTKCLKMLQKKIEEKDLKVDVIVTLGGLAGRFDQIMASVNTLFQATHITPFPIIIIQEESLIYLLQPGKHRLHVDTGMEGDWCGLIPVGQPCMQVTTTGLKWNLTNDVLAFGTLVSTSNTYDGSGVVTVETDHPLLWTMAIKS
assay readout: Emax (%)

Need Emax, item `Cc1ccc2[nH]c3c(=O)n(CCC(=O)N4CCN(c5cc(Cl)ccc5C)CC4)cnc3c2c1`
156

[I] Cc1ccc2c(c1)[nH]c1c(=O)n(CCC(=O)N3CCN(c4c(Cl)cccc4Cl)CC3)cnc12
[II] O=C1CCCCN1CCCCCCN1CCSc2ccc(C(F)(F)F)cc21
Of I versus II , which is the one with smaller reported Emax? Mark your selection by writing its label.
I
(I: 121%, II: 178%)

###

target: TPK enzyme (Homo sapiens (Human), UniProt Q9H3S4); test: TPK enzyme activity test; format: biochemical; details: calculated with the effect of DMSO on TPK enzyme activity as 100%; read-out: Emax
assay readout: Emax (%)

Bench note: what Emax did `O=C(CCn1cnc2c(c1=O)CCCc1ccccc1-2)N1CCN(c2cccc(C(F)(F)F)c2)CC1` show?
154

Fill in: Emax of `Cc1ccc2[nH]c3c(=O)n(CCC(=O)NCCNc4ccc5ccccc5c4)cnc3c2c1` is ___
163

Item `Cc1ccc2c(c1)[nH]c1c(=O)n(CCC(=O)N3CCN(c4ccc(Cl)c(Cl)c4)CC3)cnc12` has what recorded Emax?
145

// Emax lookup, key: `Cc1ccc2[nH]c3c(=O)n(CCC(=O)N4CCN(c5cccc(S(=O)(=O)N6CCCCC6)c5)CC4)cnc3c2c1`
151

Entry under review: `Cc1ccc2[nH]c3c(=O)n(CCC(=O)N4CCN(c5cccc(C(N)=O)c5)CC4)cnc3c2c1` . Reported Emax?
124

Report Emax for `Cc1ccc2[nH]c3c(=O)n(CCC(=O)N(C)CCNc4cccc(C(F)(F)F)c4)cnc3c2c1` please.
140

What measured Emax goes with `Cc1ccc2[nH]c3c(=O)n(CCC(=O)N4CCN(c5ccccc5F)CC4)cnc3c2c1` ?
125

Query: Emax; subject: `Cc1ccc2[nH]c3c(=O)n(CCCN4CCN(c5cccc(C(F)(F)F)c5)CC4)cnc3c2c1`
136

Which Emax is reported for this compound? `Cc1ccc2[nH]c3c(=O)n(CC(=O)N4CCN(c5cccc(C(F)(F)F)c5)CC4)cnc3c2c1`
141

Sample `Cc1ccc2[nH]c3c(=O)n(CCC(=O)N4CCN(c5cccc(C(F)(F)F)c5)CC4)cnc3c2c1` — what was its Emax?
172

So what's the measured Emax for this one? `CC(C)c1ccc(CNC(=O)CCn2cnc3c([nH]c4ccc(F)cc43)c2=O)cc1`
122

Record request: Emax value, item `Cc1ccc2c(c1)-c1nc(=O)n(CCCN3CCN(c4cccc(Cl)c4Cl)CC3)cc1CO2`
174

Name the reported Emax value associated with the compound `Cc1ccc2[nH]c3c(=O)n(CCC(=O)N4CCN(c5cccc(N)c5)CC4)cnc3c2c1`
166

For `Cc1ccc2[nH]c3c(=O)n(CCNC(=O)Cc4cccc(C(F)(F)F)c4)cnc3c2c1` , what is its reported Emax?
122

What does the record list as Emax for `O=C(Cn1cnc2c(oc3ccccc32)c1=O)N1CCN(c2cccc(C(F)(F)F)c2)CC1` ?
147

Fill in the blank: the reported Emax of `O=C(CCn1cnc2c(oc3ccc(F)cc32)c1=O)N1CCC(Cc2ccc(F)cc2)CC1` is ____.
171

What measured Emax goes with `Cc1cccc2c1[nH]c1c(=O)n(CCC(=O)N3CCN(c4cccc(C(F)(F)F)c4)CC3)cnc12` ?
121

Given the entry `Cc1ccc2[nH]c3c(=O)n(CCC(=O)N4CCN(c5cccc(C(F)(F)F)c5)CC4)ccc3c2c1` , report its measured Emax.
190

Please give the measured Emax for this compound: `Cc1ccc2[nH]c3c(=O)n(CCC(=O)NCc4cn5ccccc5n4)cnc3c2c1`
125

Request the reported Emax associated with `Cc1ccc2[nH]c3c(=O)n(CCC(=O)N4CCN(c5ccc(Cl)cc5Cl)CC4)cnc3c2c1`
148

Which value of Emax has been reported for `Cc1cccc2[nH]c3c(=O)n(CCC(=O)NCc4cccc(C(F)(F)F)c4)cnc3c12` in the records?
122

Need Emax, item `Cc1ccc2[nH]c3c(=O)n(CCC(=O)N4CCN(c5cccc(Br)c5)CC4)cnc3c2c1`
159

Fill in the blank: the reported Emax of `Cc1ccc2c(c1)[nH]c1c(=O)n(CCC(=O)N3CCN(c4cc(Cl)ccc4Cl)CC3)cnc12` is ____.
152

So what's the measured Emax for this one? `COc1cc2[nH]c3c(=O)n(CC(=O)NCc4cccc(C(F)(F)F)c4)cnc3c2cc1OC`
120

Report Emax for `CC(=O)c1ccc(N2CCN(C(=O)CCn3cnc4c([nH]c5ccc(C)cc54)c3=O)CC2)cc1` please.
126

May I ask what Emax has been recorded for `Cc1ccc2[nH]c3c(=O)n(CCC(=O)N4CCN(c5cccc(C)c5C)CC4)cnc3c2c1` ?
152

Using the record for `COc1cccc(CNC(=O)CCn2cnc3c([nH]c4ccc(C)cc43)c2=O)c1` , report its Emax.
123

# query: Emax of entry `O=C(CCn1cnc2c([nH]c3ccc(F)cc32)c1=O)N1CCN(c2cccc(C(F)(F)F)c2)CC1`
139

Given the entry `O=C(CCn1cnc2c([nH]c3ccc(C(F)(F)F)cc32)c1=O)NCc1cccc(C(F)(F)F)c1` , report its measured Emax.
142

Entry `Cc1ccc2oc3c(=O)n(CCC(=O)NCc4cccc(C(F)(F)F)c4)cnc3c2c1` has what Emax?
146

# get_value(readout='Emax', item= `COc1ccc2[nH]c(=O)c3c(ncn3CCCC(=O)N3CCN(c4cccc(Cl)c4Cl)CC3)c2c1` )
137

Attribution: patent US20250388584A1
